Property: Iodine color number, 60 d 40° C.; scope: individual compounds
# procedure_details: Iodine color number according to DIN 6162:2014-09
# Format: physicochemical
# condition_label: Polymer P4 with stabilizer; 60 d 40° C.
Form rule: numeric answer, no unit written next to it.

Use the examples below as a reference point.
Which measured Iodine color number, 60 d 40° C. value corresponds to Cn1sc(Cl)cc1=O ?
8.9

Return reported Iodine color number, 60 d 40° C.; argument: CCCCNC(=O)OCC#CI [Iodopropynyl butyl carbamate, iodopropynyl butyl carbamate]
10.0

May I ask what Iodine color number, 60 d 40° C. has been recorded for CCCCCCCCCCCCCCCC[N+](C)(C)Cc1ccccc1.[Cl-] [Polymer 16-BAC, cetylalkonium chloride] ?
3.3

Recorded Iodine color number, 60 d 40° C. for CCCCCCCCn1sc(Cl)c(Cl)c1=O , please?
8.9

Would you mind telling me what Iodine color number, 60 d 40° C. value was observed for CCCCCCCCCC[N+](C)(C)CCCCCCCCCC.[Cl-] [DDAC, didecyldimethylammonium chloride] ?
3.3

Further cases:
Any idea what its Iodine color number, 60 d 40° C. is? The compound is Cn1sccc1=O
8.7

Suppose we examine the compound CCCCCCCCn1sccc1=O ; what Iodine color number, 60 d 40° C. value has been reported?
9.7

Which Iodine color number, 60 d 40° C. value is on record for O=c1[nH]sc2ccccc12 ?
9.2
